- Assayed system: UniProt:P06276
- Test protocol: biochemical
- Assay type: biochemical
- Condition description: hAChE over hBChE
# Selectivity index (IC50 hAChE/IC50 hBChE) per record follows
Test readout: Selectivity index (IC50 hAChE/IC50 hBChE)

• CN1c2ccc(OC(=O)NCCCCCCn3cnc4ccccc43)cc2CN2CCc3ccccc3C21 (stereo not drawn) [Compound 19m] = >1000
• CN1c2ccc(OC(=O)NCCCCCCn3ccnc3)cc2CN2CCc3ccccc3C21 (stereo not drawn) [Compound 19n] = >1000
• CN1c2ccc(OC(=O)NCCCN3CCOCC3)cc2CN2CCc3ccccc3C21 (stereo not drawn) [Compound 19b] = >100

====

# IC50 per record follows
- Assayed system: hBChE (Homo sapiens)
- Sequence (P06276 29-602): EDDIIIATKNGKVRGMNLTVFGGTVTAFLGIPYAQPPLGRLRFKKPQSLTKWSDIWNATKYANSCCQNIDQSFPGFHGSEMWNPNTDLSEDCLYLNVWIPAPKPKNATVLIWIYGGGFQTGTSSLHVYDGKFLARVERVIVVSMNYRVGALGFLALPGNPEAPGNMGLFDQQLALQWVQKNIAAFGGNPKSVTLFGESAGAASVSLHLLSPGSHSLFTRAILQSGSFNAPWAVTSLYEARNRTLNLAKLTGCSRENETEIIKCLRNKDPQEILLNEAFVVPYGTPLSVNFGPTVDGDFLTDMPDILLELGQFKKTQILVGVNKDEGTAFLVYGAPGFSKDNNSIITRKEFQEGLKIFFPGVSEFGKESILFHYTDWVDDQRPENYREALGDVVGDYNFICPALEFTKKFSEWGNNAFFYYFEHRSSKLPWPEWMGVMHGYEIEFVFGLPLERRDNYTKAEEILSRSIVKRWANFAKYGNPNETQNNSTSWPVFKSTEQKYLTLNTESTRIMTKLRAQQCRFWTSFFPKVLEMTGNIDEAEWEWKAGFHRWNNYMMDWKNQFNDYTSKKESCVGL
- Test protocol: biochemical
- Assay type: biochemical
- Condition description: enzyme activity measured after 20 min incubation; read-out: IC50 hBChE
Test readout: IC50 (nM)

* CN1c2ccc(OC(=O)NCCN3CCc4ccccc4C3)cc2CN2CCc3ccccc3C21 (stereo not drawn) [Compound 19g] | 1720
* CN1c2ccc(OC(=O)NCCCCCCn3cnc4ccccc43)cc2CN2CCc3ccccc3C21 (stereo not drawn) [Compound 19m] | 7.4
* CN1c2ccc(OC(=O)NCCCCCCCCCCN3CCOCC3)cc2CN2CCc3ccccc3C21 (stereo not drawn) [Compound 19f] | 11.5
* CN1c2ccc(OC(=O)NCCCCCCN3CCNCC3)cc2CN2CCc3ccccc3C21 (stereo not drawn) [Compound 19r] | 80.6
* CN1c2ccc(OC(=O)NCCCCN3CCOCC3)cc2CN2CCc3ccccc3C21 (stereo not drawn) [Compound 19c] | 50.6
* CN1c2ccc(OC(=O)NCCN3CCOCC3)cc2CN2CCc3ccccc3C21 (stereo not drawn) [Compound 19a] | 7770
* CN1c2ccc(OC(=O)NCCCCCCn3ccnc3)cc2CN2CCc3ccccc3C21 (stereo not drawn) [Compound 19n] | 13.3
* CN1c2ccc(OC(=O)NCCCCCCN3CCOCC3)cc2CN2CCc3ccccc3C21 (stereo not drawn) [Compound 19d] | 49.3
* CN1c2ccc(OC(=O)NCCCN3CCc4ccccc4C3)cc2CN2CCc3ccccc3C21 (stereo not drawn) [Compound 19h] | 1160
* CN1c2ccc(OC(=O)NCCCCCCN3CCc4ccccc4C3)cc2CN2CCc3ccccc3C21 (stereo not drawn) [Compound 19j] | 26.7
* CN1c2ccc(OC(=O)NCCCCCCCCCCN3CCc4ccccc4C3)cc2CN2CCc3ccccc3C21 (stereo not drawn) [Compound 19l] | 41.8
* CN1c2ccc(OC(=O)NCCCCCCN3CCCCC3)cc2CN2CCc3ccccc3C21 (stereo not drawn) [Compound 19p] | 83.7

====

- Assayed system: UniProtKB P22303
- Sequence (P22303 32-614): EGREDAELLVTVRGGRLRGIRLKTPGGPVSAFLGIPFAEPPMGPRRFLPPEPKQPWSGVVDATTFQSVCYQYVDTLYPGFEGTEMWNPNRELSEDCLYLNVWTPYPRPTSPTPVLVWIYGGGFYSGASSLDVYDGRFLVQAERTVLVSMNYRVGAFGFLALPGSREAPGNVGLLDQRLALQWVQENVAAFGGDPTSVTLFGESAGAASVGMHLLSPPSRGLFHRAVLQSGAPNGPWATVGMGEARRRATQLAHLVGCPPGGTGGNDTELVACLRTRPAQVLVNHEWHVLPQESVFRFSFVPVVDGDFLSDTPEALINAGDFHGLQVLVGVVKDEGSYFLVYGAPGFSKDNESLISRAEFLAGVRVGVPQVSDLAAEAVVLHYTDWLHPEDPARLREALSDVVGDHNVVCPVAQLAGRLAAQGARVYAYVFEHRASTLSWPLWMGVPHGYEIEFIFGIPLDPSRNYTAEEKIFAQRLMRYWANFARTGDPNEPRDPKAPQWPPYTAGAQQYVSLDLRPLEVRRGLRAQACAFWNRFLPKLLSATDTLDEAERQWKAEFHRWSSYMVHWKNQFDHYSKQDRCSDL
- Test protocol: Ellman's colorimetric assay, inhibition of hAChE
- Format: biochemical
- Condition description: 10 µM
# inhibition at 10 µM per record follows
Test readout: inhibition at 10 µM

* CN1c2ccc(OC(=O)NCCCCCCCCCCN3CCc4ccccc4C3)cc2CN2CCc3ccccc3C21 (stereo not shown) [Compound 19l] | 15%
* CN1c2ccc(OC(=O)NCCN3CCc4ccccc4C3)cc2CN2CCc3ccccc3C21 (stereo not shown) [Compound 19g] | 10%
* CN1c2ccc(OC(=O)NCCCCCCCCN3CCc4ccccc4C3)cc2CN2CCc3ccccc3C21 (stereo not shown) [Compound 19k] | 11%
* CN1c2ccc(OC(=O)NCCCCCCN3CCc4ccccc4C3)cc2CN2CCc3ccccc3C21 (stereo not shown) [Compound 19j] | 9%
